Biological target: Tyrosine-protein kinase JAK2 (Homo sapiens, UniProt O60674)
Sequence (O60674 whole entry): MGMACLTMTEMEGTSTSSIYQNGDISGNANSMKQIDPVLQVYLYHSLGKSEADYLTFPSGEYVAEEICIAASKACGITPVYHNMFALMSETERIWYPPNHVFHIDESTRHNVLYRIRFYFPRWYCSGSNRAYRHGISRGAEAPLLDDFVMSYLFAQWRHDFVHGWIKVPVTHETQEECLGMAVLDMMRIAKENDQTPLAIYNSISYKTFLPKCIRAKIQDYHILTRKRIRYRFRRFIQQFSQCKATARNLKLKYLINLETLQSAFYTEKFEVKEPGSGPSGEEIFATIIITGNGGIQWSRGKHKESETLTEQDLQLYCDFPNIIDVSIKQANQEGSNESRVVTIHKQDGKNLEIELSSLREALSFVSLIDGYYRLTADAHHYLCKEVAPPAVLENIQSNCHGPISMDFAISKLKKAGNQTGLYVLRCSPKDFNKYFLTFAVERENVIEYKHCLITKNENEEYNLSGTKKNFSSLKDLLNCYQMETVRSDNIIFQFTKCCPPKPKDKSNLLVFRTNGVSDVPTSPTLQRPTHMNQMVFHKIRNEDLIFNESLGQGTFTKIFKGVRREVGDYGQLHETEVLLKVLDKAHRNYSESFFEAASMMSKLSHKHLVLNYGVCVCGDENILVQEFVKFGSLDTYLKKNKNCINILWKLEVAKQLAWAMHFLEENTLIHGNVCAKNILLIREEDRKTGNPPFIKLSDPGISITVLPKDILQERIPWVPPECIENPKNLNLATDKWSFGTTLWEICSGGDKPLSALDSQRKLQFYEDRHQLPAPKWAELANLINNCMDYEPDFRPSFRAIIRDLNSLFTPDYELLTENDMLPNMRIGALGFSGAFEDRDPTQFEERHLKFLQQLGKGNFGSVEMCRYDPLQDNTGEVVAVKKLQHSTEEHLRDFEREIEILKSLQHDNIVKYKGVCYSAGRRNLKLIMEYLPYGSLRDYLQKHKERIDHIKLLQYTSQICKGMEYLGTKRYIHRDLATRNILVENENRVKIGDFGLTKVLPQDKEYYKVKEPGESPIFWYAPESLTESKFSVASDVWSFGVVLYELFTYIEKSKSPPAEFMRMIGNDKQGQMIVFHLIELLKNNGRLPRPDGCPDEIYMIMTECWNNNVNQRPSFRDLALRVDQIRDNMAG
pIC50: −log10 of the molar value.
Please enter class 1 where pIC50 is greater than or equal to 7, and class 0 where it is lower.

Known results for compounds:
{"columns": ["smiles.representation", "class.name"],
 "data": [
  ["Cc1ccc(Cl)cc1-c1[nH]c(-c2ccnc(N)n2)cc1C(=O)NC1CCN(C)CC1", "class 1"],
  ["Cc1ccc(Cl)cc1-c1[nH]c(-c2ccnc(N)n2)cc1C(=O)Nc1ccccc1", "class 0"],
  ["CNCCNC(=O)c1cc(-c2ccnc(N)n2)[nH]c1-c1cc(Cl)ccc1C", "class 1"],
  ["CNC(=O)c1cc(-c2ccnc(N)n2)[nH]c1-c1cc(Cl)ccc1C", "class 1"]
]}

q: Tell me whether pIC50 is at least 7 here: "NC(=O)c1cc(-c2ccnc(N)n2)[nH]c1-c1cc(OC(F)(F)F)ccc1Cl"
a: class 1

q: Does the reported pIC50 for "NC(=O)c1cc(-c2ccnc(N)n2)[nH]c1-c1cc(C(F)(F)F)ccc1C(F)(F)F" fall at or above the 7 mark?
a: class 1

q: Does "NC(=O)c1cc(-c2ccnc(N)n2)[nH]c1-c1ccccc1" have a reported pIC50 of at least 7?
a: class 0

###

Dear all, this message contains pIC50 results, target or system Tyrosine-protein kinase JAK2 (Homo sapiens, UniProt O60674).
When answering, recall that pIC50 equals minus log10 of the concentration in mol/L, and write that number alone.

Please review the following examples before continuing.
{"columns": ["smiles.representation", "pIC50"],
 "data": [
  ["Cc1ccc(Cl)cc1-c1[nH]c(-c2ccnc(Nc3ccc(N4CCN(C)CC4)cc3)n2)cc1C(N)=O", 7.23],
  ["Cc1ccc(Cl)cc1-c1c(C(N)=O)cc(-c2ccnc(Nc3ccc(N4CCN(C)CC4)cc3)n2)n1C", 7.66],
  ["Cc1ccc(C(F)(F)F)cc1-c1[nH]c(-c2ccnc(N)n2)cc1C(N)=O", 8.00]
]}

q: Please respond with reported pIC50 (system Tyrosine-protein kinase JAK2 (Homo sapiens, UniProt O60674)) for "Cc1ccc(Cl)cc1-c1[nH]c(-c2ccncn2)cc1C(N)=O" .
a: 5.91

q: Answer briefly: pIC50 recorded on Tyrosine-protein kinase JAK2 (Homo sapiens, UniProt O60674) for "NC(=O)c1cc(-c2ccnc(N)n2)[nH]c1-c1ccccc1Cl"
a: 6.21

###

The compounds listed here are annotated with their Vd.
Experiment: Volume of distribution at steady state in Balb nu/nu mouse at 10 mg/kg, iv
Assay type: ADME, organism-based
Set-up: dose 10 mg/kg, route intravenous
Conditions: in vivo, read-out: Vdss
Please don't drop the unit; write it after the number.

These recorded examples may help you get a feel for the data.
{"columns": ["smiles.representation", "Vd"],
 "data": [
  ["CCc1ccc(C(F)(F)F)cc1-c1[nH]c(-c2ccnc(N)n2)cc1C(N)=O", "0.6 L/kg"],
  ["NC(=O)c1cc(-c2ccnc(N)n2)[nH]c1-c1cc(C(F)(F)F)ccc1Cl", "0.9 L/kg"]
]}

q: Return value of Vd for input "CCc1ccc(Cl)cc1-c1[nH]c(-c2ccnc(N)n2)cc1C(N)=O" , no commentary.
a: 1.8 L/kg
